Target: G-protein coupled receptor 55 (Homo sapiens, UniProt Q9Y2T6)
Sequence (Q9Y2T6 whole entry): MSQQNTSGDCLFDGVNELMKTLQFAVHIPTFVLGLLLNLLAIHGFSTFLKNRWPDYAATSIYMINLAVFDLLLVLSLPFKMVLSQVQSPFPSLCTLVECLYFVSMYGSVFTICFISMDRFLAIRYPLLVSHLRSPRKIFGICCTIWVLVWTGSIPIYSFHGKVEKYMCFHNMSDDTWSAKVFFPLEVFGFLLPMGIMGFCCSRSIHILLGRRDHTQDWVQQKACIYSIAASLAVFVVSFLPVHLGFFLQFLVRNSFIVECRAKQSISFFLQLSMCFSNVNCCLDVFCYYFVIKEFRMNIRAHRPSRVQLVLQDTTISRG
Assay: Agonist activity at human GPR55 expressed in CHOK1 cells at 10 uM by pathHunter beta-arrestin assay relative to LPI
Assay type: cell-based
Settings: CHO-K1
Quick reference for Activity among some compounds

SMILES_REPRESENTATION: O=C(NC(=S)Nc1ccc(S(=O)(=O)NCc2ccc(F)cc2)cc1)c1ccc(-c2ccccc2)cc1
UNITS_LABEL: %
Activity: 185
--
SMILES_REPRESENTATION: O=C(NC(=S)Nc1ccc(S(=O)(=O)NCc2ccccc2)cc1)c1ccc(-c2ccccc2)cc1
UNITS_LABEL: %
Activity: 197
--
SMILES_REPRESENTATION: C=CCN(CC=C)S(=O)(=O)c1ccc(NC(=S)NC(=O)c2ccc([N+](=O)[O-])cc2)cc1
UNITS_LABEL: %
Activity: 93
--
SMILES_REPRESENTATION: O=C(NC(=S)Nc1ccc(S(=O)(=O)NCc2ccco2)cc1)c1ccc(-c2ccccc2)cc1
UNITS_LABEL: %
Activity: 168
--
SMILES_REPRESENTATION: C=CCNS(=O)(=O)c1ccc(NC(=S)NC(=O)c2ccc(-c3ccccc3)cc2)cc1
UNITS_LABEL: %
Activity: 194
--
SMILES_REPRESENTATION: O=C(NC(=S)Nc1ccc(S(=O)(=O)NCCc2ccccc2)cc1)c1ccc(-c2ccccc2)cc1
UNITS_LABEL: %
Activity: 117
--
SMILES_REPRESENTATION: O=C(NCc1ccccc1)c1ccc(NC(=S)NC(=O)c2ccc(-c3ccccc3)cc2)cc1
UNITS_LABEL: %
Activity: 67
--
SMILES_REPRESENTATION: CN1CCN(S(=O)(=O)c2ccc(NC(=S)NC(=O)c3ccc(-c4ccccc4)cc3)cc2)CC1
UNITS_LABEL: %
Activity: 148
--
SMILES_REPRESENTATION: CN(C)S(=O)(=O)c1ccc(NC(=S)NC(=O)c2ccc(-c3ccccc3)cc2)cc1
UNITS_LABEL: %
Activity: 101
--
SMILES_REPRESENTATION: COc1ccc(CNS(=O)(=O)c2ccc(NC(=S)NC(=O)c3ccc(-c4ccccc4)cc3)cc2)cc1
UNITS_LABEL: %
Activity: 157
--
SMILES_REPRESENTATION: Cc1ccc(CNS(=O)(=O)c2ccc(NC(=S)NC(=O)c3ccc(-c4ccccc4)cc3)cc2)cc1
UNITS_LABEL: %
Activity: 148
